Parameter: MIC. Scope: all listed entries.
System: Staphylococcus aureus
Assay: Minimum inhibitory concentration required for antibacterial activity against Staphylococcus aureus MB9
Type: functional
OBSERVABLE: MIC (µg/mL)

• CO/N=C(\C(=O)N[C@@H]1C(=O)N2C(C(=O)[O-])=C(C3CCC(=O)O3)CS[C@H]12)c1csc(N)n1.[Na+] (some centres undefined) = 2
• CO/N=C(\C(=O)N[C@@H]1C(=O)N2C(C(=O)[O-])=C(COC(C)=O)CS[C@H]12)c1csc(N)n1.[Na+] [CEFOTAXIME SODIUM] = 4
• CO/N=C(\C(=O)N[C@@H]1C(=O)N2C(C(=O)[O-])=C(/C=C3\C=C(C)C(=O)O3)CS[C@H]12)c1csc(N)n1.[Na+] = 4
• CO/N=C(\C(=O)N[C@@H]1C(=O)N2C(C(=O)[O-])=C(CC3C=CC(=O)O3)CS[C@H]12)c1csc(N)n1.[Na+] (some centres undefined) = 4

====

Tested on: Streptococcus pneumoniae
Experiment: Minimum inhibitory concentration required for antibacterial activity against Streptococcus pneumoniae PU 7
Assay type: functional
Parameter: MIC. Scope: all listed entries.
OBSERVABLE: MIC (µg/mL)

- CO/N=C(\C(=O)N[C@@H]1C(=O)N2C(C(=O)[O-])=C(COC(C)=O)CS[C@H]12)c1csc(N)n1.[Na+] [CEFOTAXIME SODIUM]: 2
- CO/N=C(\C(=O)N[C@@H]1C(=O)N2C(C(=O)[O-])=C(C3CCC(=O)O3)CS[C@H]12)c1csc(N)n1.[Na+] (some centres undefined): 2
- CO/N=C(\C(=O)N[C@@H]1C(=O)N2C(C(=O)[O-])=C(/C=C3\C=C(C)C(=O)O3)CS[C@H]12)c1csc(N)n1.[Na+]: 0.5
- CO/N=C(\C(=O)N[C@@H]1C(=O)N2C(C(=O)[O-])=C(CC3C=CC(=O)O3)CS[C@H]12)c1csc(N)n1.[Na+] (some centres undefined): 4

====

Parameter: MIC. Scope: all listed entries.
Test system: Haemophilus influenzae
Test: Minimum inhibitory concentration required for antibacterial activity against Haemophilus influenzae NEMC1
Assay type: functional
OBSERVABLE: MIC

• CO/N=C(\C(=O)N[C@@H]1C(=O)N2C(C(=O)[O-])=C(CC3C=CC(=O)O3)CS[C@H]12)c1csc(N)n1.[Na+] (some centres undefined) = < 0.03 µg/mL
• CO/N=C(\C(=O)N[C@@H]1C(=O)N2C(C(=O)[O-])=C(C3CCC(=O)O3)CS[C@H]12)c1csc(N)n1.[Na+] (some centres undefined) = < 0.03 µg/mL
• CO/N=C(\C(=O)N[C@@H]1C(=O)N2C(C(=O)[O-])=C(/C=C3\C=C(C)C(=O)O3)CS[C@H]12)c1csc(N)n1.[Na+] = < 0.03 µg/mL
• CO/N=C(\C(=O)N[C@@H]1C(=O)N2C(C(=O)[O-])=C(COC(C)=O)CS[C@H]12)c1csc(N)n1.[Na+] [CEFOTAXIME SODIUM] = < 0.03 µg/mL

====

Test system: Klebsiella pneumoniae
Experiment: Minimum inhibitory concentration required for antibacterial activity against Klebsiella pneumoniae T767
Assay type: functional
Parameter: MIC. Scope: all listed entries.
OBSERVABLE: MIC (µg/mL)

- CO/N=C(\C(=O)N[C@@H]1C(=O)N2C(C(=O)[O-])=C(COC(C)=O)CS[C@H]12)c1csc(N)n1.[Na+] [CEFOTAXIME SODIUM]: 0.06
- CO/N=C(\C(=O)N[C@@H]1C(=O)N2C(C(=O)[O-])=C(CC3C=CC(=O)O3)CS[C@H]12)c1csc(N)n1.[Na+] (some centres undefined): 0.5
- CO/N=C(\C(=O)N[C@@H]1C(=O)N2C(C(=O)[O-])=C(/C=C3\C=C(C)C(=O)O3)CS[C@H]12)c1csc(N)n1.[Na+]: 1
- CO/N=C(\C(=O)N[C@@H]1C(=O)N2C(C(=O)[O-])=C(C3CCC(=O)O3)CS[C@H]12)c1csc(N)n1.[Na+] (some centres undefined): 0.06
